protocol.text: Inhibition of CuSO4-induced human LDL oxidation assessed as ratio of length of lag phase of conjugated diene formation in presence of compound to untreated control at 10 uM measured every 10 mins for 8 hrs by spectrophotometry
Format: functional
Reported Ratio is given for each of the following molecules.
Form: value (number only, do not type unit).

[[record]]
molecule = "CCCCCCCCCN1CCc2cc3oc(=O)n(C)c3cc2C1c1cccc(OC)c1 (stereo not given)"
value_observed = 3.8


Problem: Give its Ratio value. Item: `COc1cccc(C2=NCCc3cc4oc(=O)n(C)c4cc32)c1`
Solution: 1.8

Problem: Entry COc1cccc(C2NCCc3cc4oc(=O)n(C)c4cc32)c1 (stereo not given) please
Solution: 1.8

Problem: What about CCCN1CCc2cc3oc(=O)n(C)c3cc2C1c1cccc(OC)c1 (stereo not given) ?
Solution: 3.3

The reported measurements were obtained from ChEMBL document CHEMBL1152658.
